Recorded measurements of T/C, one per entry
- System: L1210 leukemia ip in BDF1 mice, survival T/C
- EXPERIMENT DESCRIPTION: NCI In Vivo Anticancer Drug Screen. Data for tumor model L1210 Leukemia (intraperitoneal) in B6D2F1 (BDF1) mice
- CONDITION NOTES: endpoint: mean survival time; dose: 400.0 mg/kg/injection; schedule: Q01DX009 (ip); vehicle: Klucel (hydroxypropylcellulose) (HPC); higher = longer survival
Toxic doses and inconclusive results are not listed.

CC1OCC2OC(C)OC(C(COC(=O)c3ccc([N+](=O)[O-])cc3)OS(C)(=O)=O)C2O1 (centres undefined) ... 92 % of control
O=S(=O)(Nc1ccccn1)c1ccccc1 ... 98 % of control

-- ask Which T/C is listed for CCOC(=O)c1ccc(NC(=O)Nc2cccc(C(C)=O)c2)cc1 ?
-- reply 101 % of control

-- ask Entry to check: O=S(=O)(c1ccc(Cl)cc1)C(Cl)(Cl)Cl
-- reply 96 % of control

----------
- Tested on: L1210 leukemia ip in BDF1 mice, survival T/C
- EXPERIMENT DESCRIPTION: NCI In Vivo Anticancer Drug Screen. Data for tumor model L1210 Leukemia (intraperitoneal) in B6D2F1 (BDF1) mice
- CONDITION NOTES: endpoint: mean survival time; dose: 200.0 mg/kg/injection; schedule: Q04DX002 (ip); vehicle: Klucel (hydroxypropylcellulose) (HPC); higher = longer survival
Inconclusive results and toxic doses are left out.
# T/C listing for each entry below

CCNc1nc(Cl)nc(C(Cl)(Cl)Cl)c1Cl (tested in a mixture with another compound) ... 96 % of control

-- ask For the record Cc1ccc(C(=O)N/N=C/c2ccccc2Cl)cc1 , what value of T/C is listed for L1210 leukemia ip in BDF1 mice, survival T/C?
-- reply 93 % of control

-- ask And the next one, Cc1ccc(C(=O)OCc2ccccc2CN2CCOCC2)cc1 ?
-- reply 103 % of control

-- ask What about this molecule? COC(=O)C1C(O)C(C)C(O)C(C)/C=C\C=C(C)C(=O)Nc2c(C)c(OC(C)=O)c3c(c2O)C(=O)C(C)=C2OCOC(=C23)C(C)=CC(C)(O)C(O)C(C)C1O (stereo not given)
-- reply 101 % of control

-- ask // same read-out, input: O=C(c1ccccc1CO)N1CCCCC1
-- reply 105 % of control

-- ask What do you have for O=C(O)c1ccccc1Nc1ccccc1[N+](=O)[O-] ?
-- reply 100 % of control

-- ask Then this molecule: COc1c(NC(=O)c2ccc([N+](=O)[O-])cc2)cccc1[N+](=O)[O-]
-- reply 95 % of control

-- ask Param item: CCOC(=S)Nc1ccccc1
-- reply 90 % of control

-- ask Please answer likewise for O=C(Nc1cccc(Cl)c1Cl)C(Cl)(Cl)Cl
-- reply 104 % of control

-- ask Entry to check: COC(=O)c1ccccc1NC(=O)N(c1ccccc1)c1ccccc1
-- reply 97 % of control

----------
- Tested on: L1210 leukemia ip in BDF1 mice, survival T/C
- EXPERIMENT DESCRIPTION: NCI In Vivo Anticancer Drug Screen. Data for tumor model L1210 Leukemia (intraperitoneal) in B6D2F1 (BDF1) mice
- CONDITION NOTES: endpoint: mean survival time; dose: 200.0 mg/kg/injection; schedule: Q01DX001 (ip); vehicle: saline; higher = longer survival
Inconclusive results and toxic doses are left out.
MEASURE NAME: T/C

CC1(C)CNC(=O)O1 ... 111 % of control
Nc1ccn(C2OC(CO)C(O)C(O)C2N)c(=O)n1 (stereo unspecified) ... 103 % of control
O=c1cc(/C=C/c2ccc3ccccc3n2)c2ccccc2[nH]1 ... 96 % of control
OC1Cn2cc(Br)c[n+]2C1 (stereo unspecified) ... 102 % of control
CCCCN(C)c1ncnc2[nH]ncc12 ... 104 % of control
C1CCC2(CC1)SCCCS2 ... 113 % of control

-- ask Consider the molecule CC(=O)OCC1(C[N+](C)(C)C)CC1 and give its measured T/C.
-- reply 97 % of control

-- ask Now this one: COC(=O)c1cccc2c1-c1ccccc1C(Br)C2Br (stereo unspecified)
-- reply 95 % of control

-- ask Item: CC1COP(Oc2ccccc2)O1 (stereo unspecified)
-- reply 115 % of control

-- ask Item: CC(=O)/C(=C/c1ccccc1)N=P(c1ccccc1)(c1ccccc1)c1ccccc1
-- reply 89 % of control

-- ask Here is the next molecule: CCCCCC[Si](Cl)(CCCCCC)CCCCCC
-- reply 98 % of control

----------
- System: L1210 leukemia ip in BDF1 mice, survival T/C
- EXPERIMENT DESCRIPTION: NCI In Vivo Anticancer Drug Screen. Data for tumor model L1210 Leukemia (intraperitoneal) in B6D2F1 (BDF1) mice
- CONDITION NOTES: endpoint: mean survival time; dose: 100.0 mg/kg/injection; schedule: Q01DX009 (ip); vehicle: Klucel (hydroxypropylcellulose) (HPC)
Toxic doses and inconclusive results are not listed. Rule as the data show it: active = T/C of 150% or more; inactive = T/C below 125%.
Reply using exactly one outcome from True = active, False = inactive

Past entries and their recorded results:
CC(=O)n1cc(/C=C2\N=C(c3cccc(Cl)c3)OC2=O)c2ccccc21 ... False
CN=NNc1ccccc1 ... True

Next up:
-- ask Record request — test call for CC(C)(C)C1CCC(NC(=O)C(Cl)Cl)CC1 (stereo not given)
-- reply False

----------
- System: L1210 leukemia ip in BDF1 mice, survival T/C
- EXPERIMENT DESCRIPTION: NCI In Vivo Anticancer Drug Screen. Data for tumor model L1210 Leukemia (intraperitoneal) in B6D2F1 (BDF1) mice
- CONDITION NOTES: endpoint: mean survival time; dose: 200.0 mg/kg/injection; schedule: Q01DX001 (ip); vehicle: carboxymethylcellulose (CMC); higher = longer survival
Toxic doses and inconclusive results are not listed.
Examples of molecules with documented T/C follow.

-- ask # get_value(readout= T/C, system= L1210 leukemia ip in BDF1 mice, survival T/C) for CNC(=O)O/N=C(/C)c1ccc(Cl)cc1
-- reply 101 % of control

-- ask Continue with CCCCCC(=O)N1CCCCC1C (stereo unspecified)
-- reply 90 % of control

-- ask One more molecule: CC(=O)Nc1ccc(NC(=O)c2ccc([As](O)O)cc2)cc1
-- reply 113 % of control

-- ask Please give the result for O=C1c2cccnc2C(=O)c2c(O)ccc(O)c21 too.
-- reply 100 % of control

-- ask Next entry: O=C(O)CCC(c1ccccc1)(c1ccccc1)c1ccccc1
-- reply 95 % of control

-- ask Then what about the molecule CC(=O)Nc1cccc(OCCOc2ccc([N+](=O)[O-])cc2)c1 ?
-- reply 92 % of control

----------
- System: L1210 leukemia ip in BDF1 mice, survival T/C
- EXPERIMENT DESCRIPTION: NCI In Vivo Anticancer Drug Screen. Data for tumor model L1210 Leukemia (intraperitoneal) in B6D2F1 (BDF1) mice
- CONDITION NOTES: endpoint: mean survival time; dose: 100.0 mg/kg/injection; schedule: Q04DX003 (ip); vehicle: saline with Tween-80; higher = longer survival
Inconclusive results and toxic doses are left out.
MEASURE NAME: T/C

-- ask Given the entry CC(=O)NC(C)C , report its measured T/C.
-- reply 93 % of control

-- ask Please answer likewise for O=c1[nH]cnc2c(Cl)c(C(Cl)(Cl)Cl)nn12 (tested in a mixture with another compound)
-- reply 104 % of control

-- ask Let us now turn to COc1ccc(C2C3CCC(C3)C2N)cc1 (stereo unspecified)
-- reply 100 % of control

-- ask Note, next up: CN(C)C=C1C(=O)c2ccccc2C1=O
-- reply 105 % of control

-- ask Entry to check: Cc1cccc([N+](=O)[O-])n1
-- reply 89 % of control

-- ask Same again, this time with CCCC(C)c1ccccc1O (stereo unspecified)
-- reply 95 % of control

-- ask Follow-up item: Cc1ccc(S(=O)(=O)Nc2ccc(C#N)c3ccccc23)cc1
-- reply 90 % of control

-- ask CC(=O)c1cc(C)c(C)s1 ?
-- reply 90 % of control

-- ask Now this one: COc1cc2ccc(/C(C)=N/OC(C)=O)cc2cc1OC
-- reply 100 % of control

-- ask Also COC(=O)c1cc(C(C)=O)nc2ccccc12 ?
-- reply 94 % of control

-- ask Now give it for COP(=O)(C(OC(=O)C(C)(C)C)=C(C)C)N(C)C (stereo unspecified) too.
-- reply 97 % of control

-- ask Consider next the compound COc1ccc(CCNC(=O)/C=C\C(=O)O)cc1OC in the same way.
-- reply 100 % of control

-- ask Next compound: CC(C)COC(=O)c1cc(O)c(O)c(O)c1
-- reply 97 % of control

-- ask Similarly, CC(=O)N(C)c1ccc(NC2=NCCO2)cc1 ?
-- reply 98 % of control
